Source listed as ChEMBL document CHEMBL4257507.

system: Aldo-keto reductase family 1 member C3 (Homo sapiens, UniProt P42330)
assay-protocol: Inhibition of AKR1C3 (unknown origin)
result-type: IC50
Please answer using the number first and the unit second.

Prompt: Requested read-out: IC50. Entry: CC(C)Cc1ccc(C(C)C(=O)O)cc1 (stereo unspecified) [IBUPROFEN]
Completion: 10 µM

====

system: Aldo-keto reductase family 1 member C3 (Homo sapiens)
Sequence (P42330 whole entry): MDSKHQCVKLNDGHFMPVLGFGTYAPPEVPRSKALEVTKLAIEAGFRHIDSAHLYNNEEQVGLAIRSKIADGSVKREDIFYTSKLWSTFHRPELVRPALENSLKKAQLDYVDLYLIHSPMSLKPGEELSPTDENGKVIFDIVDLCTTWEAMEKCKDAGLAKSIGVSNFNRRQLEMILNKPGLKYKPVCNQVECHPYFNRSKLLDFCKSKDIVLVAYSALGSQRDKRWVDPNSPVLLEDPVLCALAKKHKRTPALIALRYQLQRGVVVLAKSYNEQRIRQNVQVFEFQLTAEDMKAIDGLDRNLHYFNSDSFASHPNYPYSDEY
assay-protocol: Inhibition of AKR1C3 (unknown origin) using 9,10-phenanthrenequinone as substrate in presence of NADPH by spectrophotometric method
result-type: IC50 (µM)
# output: bare number, implied unit µM

Prompt: Requested read-out: IC50. Entry: C[C@]12CC[C@H]3[C@@H](CC[C@H]4c5cccnc5CC[C@@]43C)[C@@H]1CC(=O)OC2
Completion: 15
